Where these numbers come from: patent US7658917

Reported Fold Increase in Lag Time; nucleation assay; 100 mole % is given for each of the following binders.
- measuredOn: natural β-amyloid peptide β-AP1-40 (human)
- Sequence (peptide, as listed by the source): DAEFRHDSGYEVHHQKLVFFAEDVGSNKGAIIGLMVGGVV
- testMethodNotes: cell-based or functional assay
Ends that are not written are not given here. * marks the point of attachment. Cholyl = C[C@H](CCC(=O)*)[C@H]1CC[C@H]2[C@@H]3[C@H](O)C[C@@H]4C[C@H](O)CC[C@]4(C)[C@H]3C[C@H](O)[C@]12C

// worked examples, Fold Increase in Lag Time; nucleation assay; 100 mole % included
| binder | observedValue |
| --- | --- |
| Cholyl-LVFFA-OH (SMILES CC(C)C[C@H](NC(=O)CC[C@@H](C)[C@H]1CC[C@H]2[C@@H]3[C@H](O)C[C@@H]4C[C@H](O)CC[C@]4(C)[C@H]3C[C@H](O)[C@]12C)C(=O)N[C@H](C(=O)N[C@@H](Cc1ccccc1)C(=O)N[C@@H](Cc1ccccc1)C(=O)N[C@@H](C)C(=O)O)C(C)C) [cholyl-Aβ17-21] | > 5 fold |
| Cholyl-QKLVF-OH (SMILES CC(C)C[C@H](NC(=O)[C@H](CCCCN)NC(=O)[C@H](CCC(N)=O)NC(=O)CC[C@@H](C)[C@H]1CC[C@H]2[C@@H]3[C@H](O)C[C@@H]4C[C@H](O)CC[C@]4(C)[C@H]3C[C@H](O)[C@]12C)C(=O)N[C@H](C(=O)N[C@@H](Cc1ccccc1)C(=O)O)C(C)C) [cholyl-Aβ15-19] | 3.1 fold |

With those in mind, consider the next binder.
In plain terms, Cholyl-KLTFF [cholyl-Aβ16-20 (Val18->Thr)] has a documented Fold Increase in Lag Time; nucleation assay; 100 mole % of ~1 fold
